Here, each record is paired with measured 48 h LC50 (-log10 mol/L) data.
- Test system: Daphnia magna
- test-details: 48 h LC50 (-log10 mol/L); higher = more toxic
value-kind: 48 h LC50 (-log10 mol/L)

1. Cc1ccc([N+](=O)[O-])cc1C: 3.98
2. CC[C@H]1OC(=O)[C@H](C)[C@@H](O[C@H]2C[C@@](C)(OC)[C@@H](O)[C@H](C)O2)[C@H](C)[C@@H](O[C@@H]2O[C@H](C)C[C@H](N(C)C)[C@H]2O)[C@](C)(OC)C[C@@H](C)C(=O)[C@H](C)[C@@H](O)[C@]1(C)O: 4.6
3. CCc1ccccc1: 4.5
4. ClCC(Cl)Cl: 3.49
